The measured values listed here are drawn from patent US20220235057A1.

# Test system: Zika virus (ZIKV)
# protocol_summary: anti-Zika virus activity (inhibition rate)
# Format: cell-based
# recorded_conditions: Drug concentration 33 μM

{"molecule": "O=C1C2Cc3ccccc3CN2C(c2ccc(O)c(O)c2)N1Nc1ccccc1 (centres unmarked) [ZSD-30A]", "assayed_system": "Zika virus (ZIKV)", "Anti-ZIKV activity (inhibition rate)": "− (−: Inactive)"}
{"molecule": "O=C1[C@@H]2Cc3ccccc3CN2C(Cc2ccc(O)c(O)c2)N1Nc1ccccc1 (some centres unmarked)", "assayed_system": "Zika virus (ZIKV)", "Anti-ZIKV activity (inhibition rate)": "− (−: Inactive)"}

====

# Test system: Usutu virus (USUV)
# protocol_summary: anti-Usutu virus activity (inhibition rate)
# Format: cell-based
# recorded_conditions: Usutu virus; Drug concentration 33 μM
property_measured: inhibition at 33 µM

INPUT: Which inhibition at 33 µM value belongs to O=C1[C@@H]2Cc3ccccc3N2[C@@H](c2ccc(O)cc2)N1NS(=O)(=O)c1ccc([N+](=O)[O-])cc1 ?
OUTPUT: < 0%

INPUT: Which inhibition at 33 µM reading was recorded for the compound C=C1CC[C@@H]2[C@]3(C)COC(C)(C)O[C@@H]3CC[C@@]2(C)[C@@H]1C[C@H]1N(Nc2ccc([N+](=O)[O-])cc2)C(=O)[C@@H]2Cc3ccccc3N21 ?
OUTPUT: > 100%

INPUT: Would you kindly share the measured inhibition at 33 µM for O=C1[C@@H]2Cc3ccccc3N2[C@@H](c2ccc([N+](=O)[O-])cc2)N1Nc1ccccc1 ?
OUTPUT: > 100%

INPUT: Param item = O=C1C2CCCC2C(c2ccccc2)N1c1ccccc1 (stereo not shown) ; retrieve measured inhibition at 33 µM.
OUTPUT: 0 to 100%

INPUT: Value lookup for inhibition at 33 µM; key = O=C1[C@@H]2CCc3ccccc3N2[C@@H](c2ccc(O)cc2)N1c1ccc([N+](=O)[O-])cc1
OUTPUT: < 0%

INPUT: Please look up its inhibition at 33 µM: O=C1[C@@H]2CCc3ccccc3N2[C@@H](Cc2ccccc2)N1Nc1ccc([N+](=O)[O-])cc1 [ZXD-107A]
OUTPUT: < 0%

INPUT: Dear colleague, I am looking for the recorded inhibition at 33 µM of the following compound: CC(C)(C)[Si](C)(C)Oc1ccc(C2N(Cc3ccccc3)C(=O)C3CCc4ccccc4N32)cc1 (stereo not shown) [ZXD-241B]
OUTPUT: > 100%

INPUT: Quick one: inhibition at 33 µM for O=C1[C@@H]2CCc3ccccc3N2C(c2ccc([N+](=O)[O-])c(O)c2)N1Nc1ccccc1 (stereo partly shown) ?
OUTPUT: 0 to 100%

INPUT: Find the recorded inhibition at 33 µM belonging to CC1(C)OB(c2ccc(C3N(Nc4ccccc4)C(=O)[C@@H]4Cc5ccccc5CN34)cc2)OC1(C)C (stereo partly shown) and report it.
OUTPUT: 0 to 100%

INPUT: Find the recorded inhibition at 33 µM belonging to COc1ccc(C2N(c3ccc([N+](=O)[O-])cc3)C(=O)[C@@H]3Cc4ccccc4CN23)cc1OC (stereo partly shown) [ZSD-12B] and report it.
OUTPUT: 0 to 100%

INPUT: Returns the measured inhibition at 33 µM for the input compound. Input: O=C(Nc1ccc([N+](=O)[O-])cc1)C1CCc2ccccc2N1 (stereo not shown)
OUTPUT: < 0%

INPUT: # input compound: O=C1[C@H]2CCc3ccccc3N2C(c2ccc(O)cc2)N1Nc1ccccc1 (stereo partly shown) [ZXD-86A] ; wanted: its inhibition at 33 µM
OUTPUT: < 0%

INPUT: Report inhibition at 33 µM for O=C(NN1C(=O)[C@@H]2Cc3ccccc3N2[C@H]1c1ccc([N+](=O)[O-])cc1)c1ccc([N+](=O)[O-])cc1 please.
OUTPUT: 0 to 100%

INPUT: Could you tell me which inhibition at 33 µM is on file for COc1ccc(CC2N(Nc3ccccc3)C(=O)C3CCc4ccccc4N32)cc1OC (stereo not shown) ?
OUTPUT: > 100%

INPUT: Recorded inhibition at 33 µM for O=C1C2CCCC2C(c2ccc(Cl)cc2)N1c1ccccc1 (stereo not shown) , please?
OUTPUT: > 100%

INPUT: inhibition at 33 µM for O=C1C2CCCC2C(c2ccccc2)N1c1ccc([N+](=O)[O-])cc1 (stereo not shown) ?
OUTPUT: > 100%

====

# Test system: drug resistant strains of Acinetobacter baumannii
# protocol_summary: anti-drug resistant strains of Acinetobacter baumannii (MIC)
# Type: cell-based
# recorded_conditions: resistant strain of Acinetobacter baumannii no. 17
Kindly supply the reported log10 of MIC values for the records listed here.
In plain terms, each number is the log10 of measured MIC in µg/mL.

INPUT: Sample O=C(NNc1ccccc1)C1CCCCN1 (centres unmarked) — what was its log10 of MIC?
OUTPUT: 0.60

INPUT: Give its log10 of MIC value. Item: O=C(NNc1ccc(F)cc1)[C@H]1CCNC1
OUTPUT: 0.30

INPUT: What does the data say about its log10 of MIC? Entry: O=C(NNc1ccc(F)cc1)C1CNc2ccccc21 (centres unmarked)
OUTPUT: 0.00

INPUT: Any idea what log10 of MIC was measured for O=C(NNc1ccc(F)cc1)c1cc2ccccc2[nH]1 ?
OUTPUT: -0.30

INPUT: Entry O=C(NNc1ccc(OCc2ccccc2)cc1)[C@@H]1Cc2ccccc2N1 has what log10 of MIC?
OUTPUT: 0.30

INPUT: # get_value(readout='log10 of MIC', item= O=C(NNc1ccc(F)cc1)c1c[nH]c2ccccc12 )
OUTPUT: -0.30

INPUT: Form field: reported log10 of MIC of O=C(NNc1ccc(F)cc1)c1ccc[nH]1
OUTPUT: -0.30

INPUT: Which measured log10 of MIC value corresponds to O=C(NNc1ccccc1)C1CCc2ccccc2N1 (centres unmarked) ?
OUTPUT: 0.60

INPUT: # query: log10 of MIC of entry O=C(NNc1ccccc1)c1c[nH]c2ccccc12
OUTPUT: 0.90

INPUT: Data request, read-out log10 of MIC, for O=C(NNc1ccccc1)c1ccc[nH]1
OUTPUT: 0.60

INPUT: Fill blank: measured log10 of MIC of the compound O=C(NNc1ccccc1)[C@@H]1Cc2ccccc2CN1 is ____.
OUTPUT: 0.30

====

# Test system: Usutu virus (USUV)
# protocol_summary: anti-Usutu virus activity (inhibition rate)
# Type: cell-based
# recorded_conditions: Usutu virus; Drug concentration 33 μM
property_measured: inhibition at 33 µM

INPUT: # get_value(readout= inhibition at 33 µM, system= Usutu virus (USUV)) for O=C1[C@@H]2Cc3ccccc3N2[C@@H](c2ccc([N+](=O)[O-])cc2)N1NS(=O)(=O)c1ccc([N+](=O)[O-])cc1
OUTPUT: 0 to 100%

INPUT: Checklist item: inhibition at 33 µM tested on Usutu virus (USUV), entry O=C1[C@@H]2Cc3ccccc3CN2C(c2ccc(O)c(O)c2)N1c1ccc([N+](=O)[O-])cc1 (stereo partly drawn) , value?
OUTPUT: 0 to 100%

INPUT: So what inhibition at 33 µM did O=C1[C@@H]2Cc3ccccc3CN2C(c2ccc([N+](=O)[O-])cc2)N1Nc1ccccc1 (stereo partly drawn) get with Usutu virus (USUV)?
OUTPUT: 0 to 100%

INPUT: # returns recorded inhibition at 33 µM (system: Usutu virus (USUV)) for COc1cc(C2N(c3ccc([N+](=O)[O-])cc3)C(=O)[C@@H]3Cc4ccccc4CN23)ccc1O (stereo partly drawn)
OUTPUT: < 0%

INPUT: I'm curious: which inhibition at 33 µM was measured for O=C1C(c2ccccc2)C(c2ccc(O)cc2)N2CCC[C@@H]12 (stereo partly drawn) tested on Usutu virus (USUV)?
OUTPUT: 0 to 100%

INPUT: State its inhibition at 33 µM on Usutu virus (USUV): COc1cc([C@H]2N(Nc3ccccc3)C(=O)[C@@H]3Cc4ccccc4N32)ccc1O
OUTPUT: < 0%

====

Exercise: state measured inhibition at 11 µM for each of the compounds provided.
# Tested on: Usutu virus (USUV)
# protocol_summary: anti-Usutu virus activity (inhibition rate)
# Format: cell-based
# recorded_conditions: Usutu virus; Drug concentration 11 μM

INPUT: Need inhibition at 11 µM of O=C1C(c2ccccc2)C(c2ccc(O)cc2)N2CCC[C@@H]12 (stereo partly drawn) [ZXP-10] , thanks.
OUTPUT: < 0%

INPUT: # query: inhibition at 11 µM of entry O=C1[C@@H]2Cc3ccccc3CN2C(c2ccc(O)c(O)c2)N1c1ccc([N+](=O)[O-])cc1 (stereo partly drawn) [ZSD-11]
OUTPUT: < 0%

INPUT: Form field: reported inhibition at 11 µM of CC(C)(C)[Si](C)(C)Oc1ccc(C2N(Nc3ccccc3)C(=O)C3CCc4ccccc4N32)cc1 (stereo not drawn) [ZXD-131B]
OUTPUT: 0 to 100%

INPUT: Entry under review: CC1(C)OB(c2ccc(C3N(Nc4ccccc4)C(=O)[C@@H]4Cc5ccccc5CN34)cc2)OC1(C)C (stereo partly drawn) [ZSD-32] . Reported inhibition at 11 µM?
OUTPUT: < 0%

INPUT: inhibition at 11 µM lookup needed for CC(C)(C)[Si](C)(C)OCc1ccc(C2N(Nc3ccccc3)C(=O)C3CCc4ccccc4N32)cc1 (stereo not drawn) [ZXD-156B] , thanks.
OUTPUT: > 100%

INPUT: I'd like to know its inhibition at 11 µM. The compound in question is O=C1[C@@H]2CCc3ccccc3N2[C@@H](Cc2ccccc2)N1Nc1ccc([N+](=O)[O-])cc1 [ZXD-107A]
OUTPUT: < 0%

INPUT: Please give the measured inhibition at 11 µM for this compound: O=C1C2CCCC2C(c2ccccc2)N1c1ccccc1 (stereo not drawn) [ZDL-60]
OUTPUT: < 0%

INPUT: Quick check: inhibition at 11 µM of O=C1[C@@H]2CCc3ccccc3N2[C@@H](c2ccc(O)cc2)N1c1ccc([N+](=O)[O-])cc1 [ZXD-121] ?
OUTPUT: < 0%

INPUT: Find the recorded inhibition at 11 µM belonging to O=C1[C@@H]2Cc3ccccc3N2[C@@H](c2ccc([N+](=O)[O-])cc2)N1Nc1ccccc1 [ZDL-19] and report it.
OUTPUT: < 0%

INPUT: Recorded inhibition at 11 µM for COc1cc(C2N(c3ccc([N+](=O)[O-])cc3)C(=O)[C@@H]3Cc4ccccc4CN23)ccc1O (stereo partly drawn) [ZSD-8] , please?
OUTPUT: < 0%

INPUT: Tell me the measured inhibition at 11 µM of COc1ccc(CC2N(Nc3ccccc3)C(=O)C3CCc4ccccc4N32)cc1OC (stereo not drawn) [ZXD-140] , please.
OUTPUT: < 0%

INPUT: Given O=C(Nc1ccc([N+](=O)[O-])cc1)C1CCc2ccccc2N1 (stereo not drawn) [ZXD-53] , state its recorded inhibition at 11 µM.
OUTPUT: < 0%

INPUT: Give its inhibition at 11 µM value. Item: O=C1[C@@H]2Cc3ccccc3CN2C(c2ccc([N+](=O)[O-])cc2)N1Nc1ccccc1 (stereo partly drawn) [ZSD-18]
OUTPUT: < 0%

INPUT: # inhibition at 11 µM lookup, item O=C(NN1C(=O)[C@@H]2Cc3ccccc3N2[C@H]1c1ccc([N+](=O)[O-])cc1)c1ccc([N+](=O)[O-])cc1 [ZDL-11]
OUTPUT: < 0%

INPUT: Return reported inhibition at 11 µM; argument: O=C1C2CCc3ccccc3N2[C@@H](c2cc3ccccc3s2)N1Nc1ccccc1 (stereo partly drawn) [ZXD-178B]
OUTPUT: 0 to 100%

INPUT: Fill in the blank: the reported inhibition at 11 µM of COc1ccc(C2N(c3ccc([N+](=O)[O-])cc3)C(=O)[C@@H]3Cc4ccccc4CN23)cc1OC (stereo partly drawn) [ZSD-12B] is ____.
OUTPUT: < 0%

INPUT: Suppose we examine the compound CC(C)(C)[Si](C)(C)Oc1ccc(C2N(Cc3ccccc3)C(=O)C3CCc4ccccc4N32)cc1 (stereo not drawn) [ZXD-241B] ; what inhibition at 11 µM value has been reported?
OUTPUT: < 0%

INPUT: # inhibition at 11 µM lookup, item O=C1C2CCCC2C(c2ccccc2)N1c1ccc([N+](=O)[O-])cc1 (stereo not drawn) [ZDL-61]
OUTPUT: < 0%

INPUT: I have this compound here, COc1cc([C@H]2N(Nc3ccccc3)C(=O)[C@@H]3Cc4ccccc4N32)ccc1O [ZDL-21] , and I need its recorded inhibition at 11 µM.
OUTPUT: < 0%

INPUT: inhibition at 11 µM for CC(C)(C)[Si](C)(C)Oc1cccc(C2N(Nc3ccccc3)C(=O)C3CCc4ccccc4N32)c1 (stereo not drawn) [ZXD-147B] ?
OUTPUT: > 100%

INPUT: So what does the record say about inhibition at 11 µM for O=C1[C@@H]2Cc3ccccc3N2[C@@H](c2ccc([N+](=O)[O-])cc2)N1NS(=O)(=O)c1ccc([N+](=O)[O-])cc1 [ZDL-38] ?
OUTPUT: < 0%

INPUT: Entry O=C1[C@@H]2Cc3ccccc3N2[C@@H](c2ccc(O)cc2)N1NS(=O)(=O)c1ccc([N+](=O)[O-])cc1 [ZDL-39] has what inhibition at 11 µM?
OUTPUT: < 0%

INPUT: For the compound shown here, O=C1C2CCCC2C(c2ccc(Cl)cc2)N1c1ccccc1 (stereo not drawn) [ZDL-62] , give the reported inhibition at 11 µM.
OUTPUT: < 0%

INPUT: Recorded inhibition at 11 µM of O=C1[C@H]2CCc3ccccc3N2C(c2ccc(O)cc2)N1Nc1ccccc1 (stereo partly drawn) [ZXD-86A] , please.
OUTPUT: < 0%

INPUT: Dear colleague, I am looking for the recorded inhibition at 11 µM of the following compound: C=C1CC[C@@H]2[C@]3(C)COC(C)(C)O[C@@H]3CC[C@@]2(C)[C@@H]1C[C@H]1N(Nc2ccc([N+](=O)[O-])cc2)C(=O)[C@@H]2Cc3ccccc3N21 [ZDL-43]
OUTPUT: > 100%

INPUT: Looking for the measured inhibition at 11 µM of O=C1C2CCc3ccccc3N2C(c2ccc(CO)cc2)N1Nc1ccccc1 (stereo not drawn) [ZXD-157B] , can you help?
OUTPUT: > 100%

INPUT: Could you tell me which inhibition at 11 µM is on file for O=C1[C@@H]2CCc3ccccc3N2C(c2ccc([N+](=O)[O-])c(O)c2)N1Nc1ccccc1 (stereo partly drawn) [ZXD-95] ?
OUTPUT: < 0%
